# target desc: IL-2 (UniProt P60568 21-153)
# Sequence (P60568 21-153 limits assumed): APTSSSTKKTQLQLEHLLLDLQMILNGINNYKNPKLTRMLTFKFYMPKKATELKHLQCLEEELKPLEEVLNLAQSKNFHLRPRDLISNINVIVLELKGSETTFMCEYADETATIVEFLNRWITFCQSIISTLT
# assay comment: ForteBio (BLI), purified scFv-Fc to IL-2
Quick reference for Response among some binders
Kindly provide the number alone.

Look over these answered cases.
INSERT INTO assay_data (binder, result_value) VALUES
  ('K1-69H5 scFv-Fc (JR8.144.3) (Fc fusion, Purified scFv-Fc homodimer; also called JR8.144.3 K1-69H5; not shown: Fc fragment (human Fc domain)) EIVLTQSPGTLSLSPGERATLSCRASQSVSSSYLAWYQQKPGQAPRLLIYGASSRATGIPDRFSGSGSGTDFTLTISRLEPEDFAVYYCQQYSRAPGTFGQGTKVEIKAGGGGSGGGGSGGGGSQVQLVQSGAEVKKPGSSVKVSCKASGGTFSSYGIHWVRQAPGQGLEWMGGIIPILGTANYAQKFQGRVTITADESTSTAYMELSSLRSEDTAVYYCAVPFFDVWGQGTLVTVSS', 3),
  ('K1-69C7 scFv-Fc (JR8.153.1) (Fc fusion, Purified scFv-Fc homodimer; also called JR8.153.1 K1-69C7; not shown: Fc fragment (human Fc domain)) DIQMTQSPSSLSASVGDRVTITCRASQDISNYLNWYQQKPGKAPKLLIYGASSLQSGVPSRFSGSGSGTDFTLTISSLQPEDFATYYCQQTYTIPLTFGQGTKVEIKAGGGGSGGGGSGGGGSQVQLVQSGAEVKKPGSSVKVSCKASGGTFTSYAINWVRQAPGQGLEWMGRIIPIIGRVDYAQKFQGRVTITADESTSTAYMELSSLRSEDTAVYYCARGFVGGFDVWGQGTLVTVSS', 3.5),
  ('K3-15F7 scFv-Fc (JR8.144.4) (Fc fusion, Purified scFv-Fc homodimer; also called JR8.144.4 K3-15F7; not shown: Fc fragment (human Fc domain)) DIQMTQSPSSLSASVGDRVTITCRASQDIRRYLNWYQQKPGKAPKLLIYAASSLQSGVPSRFSGSGSGTDFTLTISSLQPEDFATYYCQQAYSIPLTFGQGTKVEIKGGGGSGGGGSGGGGSEVQLVESGGGLVKPGGSLRLSCAASGFTFSNAWMSWVRQAPGKGLEWVGRIKSKTAGGTTDYAAPVKGRFTISRDDSKNTLYLQMNSLKTEDTAVYYCARDWWYLDFDYWGQGTLVTVSS', 3);

Response for K3-30B12 scFv-Fc (JR8.156.6) (Fc fusion, Purified scFv-Fc homodimer; also called JR8.156.6 K3-30B12; not shown: Fc fragment (human Fc domain)) DIQMTQSPSSLSASVGDRVTITCRASQDISTYLNWYQQKPGKAPKLLIYDASSLQSGVPSRFSGSGSGTDFTLTISSLQPEDFATYYCQQSYSAPLTFGQGTKVEIKAGGGGSGGGGSGGGGSEVQLLESGGGLVQPGGSLRLSCAASGFTFSTYAMSWVRQAPGKGLEWVSTISGSGVRTYYADSVKGRFTISRDNSKNTLYLQMNSLRAEDTAVYYCARETYIYGPFDVWGQGTLVTVSS is 3.1

Cited source: patent US20260193307A1
